study-target: UniProtKB P21980
test-protocol: Colorimetric transamidase activity assay (AL5 substrate), hTG2
Assay type: biochemical
study-conditions: Table 8; read-out: kinact (converted)
metric-name: kinact (s⁻¹)

Examples with answers:
compound	kinact / s⁻¹
C=CC(=O)NCCCC[C@H](NC(=O)OCc1ccccc1)C(=O)N1CCN(C(=O)Cc2ccccc2)CC1 [Compound 150]	0.0377
C=CC(=O)NCCCC[C@H](NC(=O)OCc1ccccc1)C(=O)N1CCN(C(=O)c2ccncc2)CC1 [Compound 154]	0.0238
C=CC(=O)NCCCC[C@H](NC(=O)OCc1ccccc1)C(=O)N1CCN(C(=O)c2ccc3ccccc3c2)CC1 [AA10]	0.0202

[I] C=CC(=O)NCCCC[C@H](NC(=O)OCc1ccccc1)C(=O)N1CCN(C(=O)c2cccnc2)CC1 [Compound 153]
[II] C=CC(=O)NCCC[C@H](NC(=O)OCc1ccccc1)C(=O)N1CCN(C(=O)c2ccccc2)CC1 [Compound 149]
[III] C=CC(=O)NCCC[C@H](NC(=O)OCc1ccccc1)C(=O)N1CCN(C(C)=O)CC1 [Compound 151]
[IV] C=CC(=O)NCCCC[C@H](NC(=O)OCc1ccccc1)C(=O)N1CCN(C(=O)c2cc3ccc(O)cc3oc2=O)CC1 [VA5]
Given 4 compounds, produce a descending ranking by kinact. # output: labels, in the requested order II, III, I, IV
(II: 0.0795 s⁻¹, III: 0.0343 s⁻¹, I: 0.024 s⁻¹, IV: 0.0115 s⁻¹)

* * *

Measured melting point accompanies every entry in the list below.

These recorded examples may help you get a feel for the data.
structure-smiles-string	test-result
C=CC(=O)NCCCC[C@H](NC(=O)OCc1ccccc1)C(=O)N1CCN(S(=O)(=O)Cc2ccccc2)CC1	50 to 52 °C
C=CC(=O)NCCCC[C@H](NC(=O)OCc1ccccc1)C(=O)N1CCN(S(=O)(=O)c2ccc3ccccc3c2)CC1	65 to 66 °C
C=CC(=O)NCCCC[C@H](NC(=O)OCc1ccccc1)C(=O)N1CCN(S(=O)(=O)C(C)C)CC1	48 to 49 °C
C=CC(=O)NCCC[C@H](NC(=O)OCc1ccccc1)C(=O)N1CCN(S(=O)(=O)c2cccc3c(N(C)C)cccc23)CC1	69 to 70 °C
C=CC(=O)NCCCC[C@H](NC(=O)OCc1ccccc1)C(=O)NCCCNS(=O)(=O)c1cccc2c(N(C)C)cccc12	65 to 67 °C

Let me know recorded melting point for `C=CC(=O)NCCCC[C@H](NC(=O)OCc1ccccc1)C(=O)N1CCN(S(=O)(=O)c2cccc3ccccc23)CC1` , thanks. 59 to 61 °C

Find the measured melting point of `C=CC(=O)NCCCC[C@H](NC(=O)OCc1ccccc1)C(=O)NCCCCNS(=O)(=O)c1cccc2c(N(C)C)cccc12` and report it. 54 to 56 °C

Report measured melting point; entry is `C=CC(=O)NCCCC[C@H](NC(=O)OCc1ccccc1)C(=O)N1CCN(C(=O)Cc2ccccc2)CC1` 48 to 49 °C

* * *

study-target: TG2 (Homo sapiens)
test-protocol: Kinetic inactivation of purified recombinant human TG2, continuous spectrophotometric activity assay (Examples 3, 10)
Assay type: biochemical
Parameters: made in house
study-conditions: read-out: kinact/Ki (μM^−1 min^−1); Table 4; for ^a no saturation observed, efficiency obtained from initial slope
Procedure: Kinetic studies were carried out in vitro, using purified recombinant human TG2 (Roy, I. et al., Protein Expr. Purif. 87: 41-46, 2013) and a direct, continuous spectrophotometric activity assay (Leblanc, A. et al., Biochemistry 40: 8335-8342, 2001). Kinetics. […] Observed first-order rate constants of inactivation were determined from non-linear regression, to a mono-exponential model. […] Kinetic parameters were determined as described above.
metric-name: kinact/KI (M⁻¹ s⁻¹)

structure-smiles-string	reading-unit	test-result
C=CC(=O)NCCCC[C@H](NC(=O)OCc1ccccc1)C(=O)NCCCCNS(=O)(=O)c1cccc2c(N(C)C)cccc12	M⁻¹ s⁻¹	883
C=CC(=O)NCCCC[C@H](NC(=O)OCc1ccccc1)C(=O)N1CCN(S(C)(=O)=O)CC1	M⁻¹ s⁻¹	2730
C=CC(=O)NCCCC[C@H](NC(=O)OCc1ccccc1)C(=O)N1CCN(S(=O)(=O)c2cccc3ccccc23)CC1	M⁻¹ s⁻¹	2130

[I] C=CC(=O)NCCCC[C@H](NC(=O)OCc1ccccc1)C(=O)N1CCN(S(=O)(=O)c2ccccc2)CC1
[II] C=CC(=O)NCCCC[C@H](NC(=O)OCc1ccccc1)C(=O)NCCNS(=O)(=O)c1cccc2c(N(C)C)cccc12
[III] C=CC(=O)NCCC[C@H](NC(=O)OCc1ccccc1)C(=O)N1CCN(S(=O)(=O)c2cccc3c(N(C)C)cccc23)CC1
Provide the items ranked by increasing kinact/KI. Dear reader, please state the labels in the requested order. II, III, I

* * *

study-target: TG2 (Homo sapiens, UniProt P21980)
test-protocol: Colorimetric transamidase activity assay (AL5 substrate), hTG2
Type: biochemical
study-conditions: read-out: kinact/KI (10^3M^−1 min^−1); Table 8
metric-name: kinact/KI (M⁻¹ s⁻¹)

Example results:
structure-smiles-string	reading-unit	kinact/KI
C=CC(=O)NCCCC[C@H](NC(=O)OCc1ccccc1)C(=O)N1CCN(C(=O)c2cc3ccc(O)cc3oc2=O)CC1	M⁻¹ s⁻¹	1040
C=CC(=O)NCCCC[C@H](NC(=O)OCc1ccccc1)C(=O)N1CCN(C(=O)c2ccncc2)CC1	M⁻¹ s⁻¹	617
C=CC(=O)NCCCC[C@H](NC(=O)OCc1ccccc1)C(=O)N1CCN(C(=O)Cc2ccccc2)CC1	M⁻¹ s⁻¹	1880
C=CC(=O)NCCCC[C@H](NC(=O)OCc1ccccc1)C(=O)N1CCN(C(=O)c2cccnc2)CC1	M⁻¹ s⁻¹	1020

[A] C=CC(=O)NCCC[C@H](NC(=O)OCc1ccccc1)C(=O)N1CCN(C(C)=O)CC1
[B] C=CC(=O)NCCC[C@H](NC(=O)OCc1ccccc1)C(=O)N1CCN(C(=O)c2ccccc2)CC1
[C] C=CC(=O)NCCCC[C@H](NC(=O)OCc1ccccc1)C(=O)N1CCN(C(=O)c2ccc3ccccc3c2)CC1
Falling order of kinact/KI, please. Output spec: a listing of the labels in the requested order. B, C, A

* * *

study-target: UniProt P21980
Sequence (P21980 1-687): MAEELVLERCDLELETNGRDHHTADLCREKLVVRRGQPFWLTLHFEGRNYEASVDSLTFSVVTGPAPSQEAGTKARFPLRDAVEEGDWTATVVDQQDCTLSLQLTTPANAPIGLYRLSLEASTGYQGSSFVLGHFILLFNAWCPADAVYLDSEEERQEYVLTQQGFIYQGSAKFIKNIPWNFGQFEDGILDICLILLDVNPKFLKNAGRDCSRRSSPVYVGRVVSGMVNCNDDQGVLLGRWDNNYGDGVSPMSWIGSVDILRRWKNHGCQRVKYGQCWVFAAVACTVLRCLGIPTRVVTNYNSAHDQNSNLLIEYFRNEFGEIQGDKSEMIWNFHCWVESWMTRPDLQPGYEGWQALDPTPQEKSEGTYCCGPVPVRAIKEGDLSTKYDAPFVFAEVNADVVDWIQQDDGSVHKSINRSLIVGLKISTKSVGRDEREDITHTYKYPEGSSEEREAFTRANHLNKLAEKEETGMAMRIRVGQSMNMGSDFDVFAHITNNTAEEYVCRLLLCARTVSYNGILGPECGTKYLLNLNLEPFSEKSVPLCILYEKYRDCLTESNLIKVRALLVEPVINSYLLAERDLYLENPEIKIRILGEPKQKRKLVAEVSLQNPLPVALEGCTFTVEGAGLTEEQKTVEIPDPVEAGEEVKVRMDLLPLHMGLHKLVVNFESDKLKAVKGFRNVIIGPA
test-protocol: Colorimetric transamidase activity assay (AL5 substrate), hTG2
Assay type: biochemical
study-conditions: Table 7; read-out: kinact (converted)
metric-name: kinact (s⁻¹)

Before answering, review these 6 worked examples.
molecule	test-result
C=CC(=O)NCCCC[C@H](NC(=O)OCc1ccccc1)C(=O)N1CCN(S(C)(=O)=O)CC1 [Compound 135]	0.00833
C=CC(=O)NCCCC[C@H](NC(=O)OCc1ccccc1)C(=O)N1CCN(S(=O)(=O)C(C)C)CC1 [Compound 133]	0.00833
C=CC(=O)NCCCC[C@H](NC(=O)OCc1ccccc1)C(=O)N1CCN(S(=O)(=O)Cc2ccccc2)CC1 [Compound 131]	0.00783
C=CC(=O)NCCCC[C@H](NC(=O)OCc1ccccc1)C(=O)N1CCN(S(=O)(=O)c2cccs2)CC1 [Compound 136]	0.0247
C=CC(=O)NCCCC[C@H](NC(=O)OCc1ccccc1)C(=O)N1CCN(S(=O)(=O)c2ccccc2)CC1 [Compound 130]	0.00783
C=CC(=O)NCCCC[C@H](NC(=O)OCc1ccccc1)C(=O)N1CCN(S(=O)(=O)c2cccc3ccccc23)CC1 [Compound 128]	0.0065

[P] C=CC(=O)NCCCC[C@H](NC(=O)OCc1ccccc1)C(=O)N1CCN(S(=O)(=O)c2ccc3ccccc3c2)CC1 [Compound 129]
[Q] C=CC(=O)NCCCC[C@H](NC(=O)OCc1ccccc1)C(=O)N1CCN(S(=O)(=O)CC)CC1 [Compound 134]
[R] C=CC(=O)NCCCC[C@H](NC(=O)OCc1ccccc1)C(=O)N1CCN(S(=O)(=O)C2CCCCC2)CC1 [Compound 132]
Ascending by kinact, please: list the molecules accordingly. Return the labels ranked in the requested order, please. P, R, Q
